# tested-target: KDR (Homo sapiens)
# Construct: expressed in transfected cells; host or cells: NIH3T3
# Sequence (P35968 20-1356): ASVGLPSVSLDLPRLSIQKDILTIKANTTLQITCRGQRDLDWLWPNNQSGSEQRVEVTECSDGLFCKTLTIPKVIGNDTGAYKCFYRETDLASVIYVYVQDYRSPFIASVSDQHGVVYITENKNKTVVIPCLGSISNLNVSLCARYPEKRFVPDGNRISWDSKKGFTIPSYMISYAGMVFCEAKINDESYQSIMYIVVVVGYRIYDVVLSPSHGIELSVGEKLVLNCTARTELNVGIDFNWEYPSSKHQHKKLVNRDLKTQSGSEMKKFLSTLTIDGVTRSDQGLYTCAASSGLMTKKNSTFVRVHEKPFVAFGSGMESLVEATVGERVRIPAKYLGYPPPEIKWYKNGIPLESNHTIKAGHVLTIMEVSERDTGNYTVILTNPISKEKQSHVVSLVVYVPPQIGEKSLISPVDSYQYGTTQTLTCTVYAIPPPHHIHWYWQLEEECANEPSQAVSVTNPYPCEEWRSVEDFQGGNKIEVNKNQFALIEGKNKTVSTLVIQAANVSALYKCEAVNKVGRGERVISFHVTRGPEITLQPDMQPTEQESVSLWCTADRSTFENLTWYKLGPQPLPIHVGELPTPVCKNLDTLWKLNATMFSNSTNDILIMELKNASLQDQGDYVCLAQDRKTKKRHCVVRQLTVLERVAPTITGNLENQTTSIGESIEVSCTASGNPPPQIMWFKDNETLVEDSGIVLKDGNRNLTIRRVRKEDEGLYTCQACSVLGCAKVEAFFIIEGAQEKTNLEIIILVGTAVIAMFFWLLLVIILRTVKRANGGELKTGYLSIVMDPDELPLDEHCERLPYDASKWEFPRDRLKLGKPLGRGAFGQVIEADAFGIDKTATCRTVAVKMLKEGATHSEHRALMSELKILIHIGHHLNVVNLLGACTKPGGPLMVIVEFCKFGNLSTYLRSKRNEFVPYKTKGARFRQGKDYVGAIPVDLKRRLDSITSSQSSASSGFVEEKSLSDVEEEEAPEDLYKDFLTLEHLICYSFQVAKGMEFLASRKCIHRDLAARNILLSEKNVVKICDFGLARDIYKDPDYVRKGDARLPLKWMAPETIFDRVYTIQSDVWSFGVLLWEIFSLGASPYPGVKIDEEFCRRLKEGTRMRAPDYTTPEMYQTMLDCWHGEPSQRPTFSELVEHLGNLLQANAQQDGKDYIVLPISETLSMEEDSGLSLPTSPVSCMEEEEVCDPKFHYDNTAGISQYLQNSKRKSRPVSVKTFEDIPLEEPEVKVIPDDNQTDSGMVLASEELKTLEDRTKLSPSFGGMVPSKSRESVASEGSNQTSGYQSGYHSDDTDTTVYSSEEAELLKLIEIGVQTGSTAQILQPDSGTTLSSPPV
# assay-text: (125I)-VEGF binding inhibition on NIH3T3 cells in which KDR was forced to be expressed
# condition-label: KDR-expressing NIH3T3 cells, (125I)-VEGF 25 pM, 90 minutes; Table 20; read-out: IC50 (concentration of 50% binding inhibition)
# Experimental: According to the method described in a document (Cell Growth & Differentiation, vol. 7, pp. 213-221, 1996), the following tests were carried out. […] The binding inhibition index of the test compounds was calculated by the following equation. […]
Response field label takes met when IC50 is strictly below 800 nM and not met in all other cases.

As a guide, the following entries are already answered.
Is IC50 strictly under 800 nM for the entry CCCCCCCCCCCCCCCCCCOc1ccc(CCC(=O)Nc2ccc(Oc3ccc4cc(C(=O)O)ccc4c3)c(C(=O)O)c2)cc1 ?
met

is_below(IC50, 800 nM) for CCCCCCCCCCCCCCCCCCOc1ccc(CCC(=O)Nc2ccc(Sc3ccc(C(=O)O)cn3)c(C(=O)O)c2)cc1 ?
not met

Criterion: IC50 strictly below 800 nM. Is it met by CCCCCCCCCCCCCCCCCCOc1ccc(CCC(=O)Nc2ccc(Oc3ccc(CCC(=O)O)cc3)c(C(=O)O)c2)cc1 ?
met

Is 800 nM strictly greater than the molecule's reported IC50? molecule: CCCCCCCCCCCCCCCCCCOc1ccc(CCC(=O)Nc2ccc(Nc3ccc(C(=O)O)cc3)c(C(=O)O)c2)cc1
met

Strictly below 800 nM in IC50? CCCCCCCCCCCCCCCCCCOc1ccc(CCC(=O)Nc2ccc(Sc3ccc(C(=O)O)cc3)c(C(=O)O)c2)cc1
met

Confirm or reject: IC50 of CCCCCCCCCCCCCCCCCCOc1ccc(CCC(=O)Nc2ccc(Oc3ccccc3C(=O)O)c(C(=O)O)c2)cc1 lies strictly below 800 nM
not met

Does the reported IC50 of CCCCCCCCCCCCCCCCCCOc1ccc(CCC(=O)Nc2ccc(Oc3ccc(/C=C/C(=O)O)cc3)c(C(=O)O)c2)cc1 stay below 800 nM?
met

Dear colleague, could you confirm whether IC50 of CCCCCCCCCCCCCCCCCCOc1ccc(CCC(=O)Nc2cc(C(=O)O)ccc2Sc2cccc(C(=O)O)c2)cc1 falls below 800 nM? Thanks.
met

Would you kindly look at the next entry?
Strictly below 800 nM in IC50? CCCCCCCCCCCCCCCCCCOc1ccc(CCC(=O)Nc2ccc(Nc3ccccc3C(=O)O)c(C(=O)O)c2)cc1
not met

* * *

Reported melting point values are given for each entry in this list.

What value of measured melting point is listed for CCCCCCCCCCCCCCCCCCNc1ccc(CCC(=O)Nc2ccc(SC)c(C(=O)O)c2)cc1 ?
151 to 158 °C

melting point for CCCCCCCCCCCCCCCCCCOc1ccc(CCC(=O)Nc2ccc(Nc3ccc(C(=O)O)cc3)c(C(=O)O)c2)cc1 ?
230 to 235 °C

Record request: melting point value, item CCCCCCCCCCCCCCCCCCOc1ccc(CCC(=O)Nc2ccc(SC)c(C(=O)O)c2)cc1
185 to 194 °C

What melting point value was documented for this compound, CCCCCCCCCCCCCCCCCCOc1ccc(CCC(=O)Nc2ccc(Sc3ccc(C(=O)O)cn3)c(C(=O)O)c2)cc1 ?
221 to 223 °C

Attention now turns to another entry.
Look up melting point: CCCCCCCCCCCCCCCCCCOc1ccc(CCC(=O)Nc2ccc(Oc3ccc(CC(=O)O)cc3)c(C(=O)O)c2)cc1
170 to 173 °C

* * *

# melting point per entry

// worked examples, melting point included
Fill in: melting point of CCCCCCCCCCCCCCCCCCOc1ccc(CCC(=O)Nc2ccc(Oc3ccc(C(=O)O)cc3)c(C(=O)O)c2)cc1 [Compound 27] is ___
213 to 215 °C

I am curious: what melting point value has been reported for CCCCCCCCCCCCCCCCCCOc1ccc(CCC(=O)Nc2cc(C(=O)O)ccc2SCc2ccccc2)cc1 [Compound 148] ?
178 to 181 °C

Given the entry CCCCCCCCOc1ccc(OCCCCCCCCCCCC(=O)Nc2ccc(SC)c(C(=O)O)c2)cc1 [Compound 138] , report its measured melting point.
180 to 185 °C

Which melting point reading was recorded for the compound CCCCCCCCCCCCCCCCCC(=O)Nc1cccc(CC(=O)Nc2ccc(SC)c(C(=O)O)c2)c1 [Compound 131] ?
224 to 228 °C

Value lookup for melting point; key = CCCCCCCCCCCCCCCCCCOc1ccc(CCC(=O)N(CC)c2ccc(SC)c(C(=O)O)c2)cc1 [Compound 149]
108 to 110 °C

Next:
melting point for CCCCCCCCCCCCCCCCCCOc1ccc(CCC(=O)N(C)c2ccc(Oc3ccc(C(=O)OC)cc3)c(C(=O)OC)c2)cc1 [Compound 22] ?
60 to 62 °C

So what does the record say about melting point for CCCCCCCCCCCCCCCCCCOc1ccc(CCC(=O)Nc2cc(C(=O)O)ccc2SCC)cc1 [Compound 146] ?
174 to 177 °C

* * *

measure-name: melting point

Given CCCCCCCCCCCCCCCCCCOc1ccc(CCC(=O)N(C)c2ccc(SC)c(C(=O)OC)c2)cc1 , state its recorded melting point.
65.5 to 66.5 °C

# melting point lookup, item CCCCCCCCCCCCCCCCCCOc1ccc(CCC(=O)Nc2cc(C(=O)O)ccc2Oc2cccc(C(=O)O)c2)cc1
212 to 216 °C

What value of measured melting point is listed for CCCCCCCCCCCCCCCCCCOc1ccc(CCC(=O)Nc2ccc(Oc3cccc(CC(=O)O)c3)c(C(=O)O)c2)cc1 ?
163 to 167 °C

I am curious: what melting point value has been reported for CCCCCCCCCCCCCCCCCCOc1ccc(CC(=O)Nc2ccc(SCC)c(C(=O)O)c2)cc1 ?
149 to 153 °C

Give the measured melting point of CCCCCCCCCCCCCCCCCCOc1ccc(OCC(=O)Nc2ccc(SC)c(C(=O)O)c2)cc1 .
165 to 169 °C

Would you mind telling me what melting point value was observed for CCCCCCCCCCCCCCCCCCOc1ccc(CCC(=O)N(C)c2ccc(SC)c(C(=O)O)c2)cc1 ?
106 to 108 °C

New cases:
What value of melting point has been reported for the following molecule? CCCCCCCCCCCCCCOc1ccc(OCCCCCC(=O)Nc2ccc(SC)c(C(=O)O)c2)cc1
199 to 202 °C

Suppose we examine the molecule CCCCCCCCCCCCCCCCCCOc1ccc(CC(=O)N(C)c2ccc(SCCCO)c(C(=O)O)c2)cc1 ; what melting point value has been reported?
104.5 to 106.5 °C

What measured melting point goes with CCCCCCCCCCCCCCCCCCOc1ccc(CCC(=O)N(CC2CC2)c2ccc(SC)c(C(=O)O)c2)cc1 ?
126 to 128 °C

Which melting point reading was recorded for the molecule CCCCCCCCCCCCCCCCCCOc1ccc(NCC(=O)Nc2ccc(SC)c(C(=O)O)c2)cc1 ?
163.5 to 169.5 °C

Dear colleague, I am looking for the recorded melting point of the following molecule: CCCCCCCCCCOc1ccc(OCCCCCCCCCC(=O)Nc2ccc(SC)c(C(=O)O)c2)cc1
185 to 188 °C

Item CCCCCCCCCCCCCCCCCCOc1ccc(CC(=O)N(C)c2ccc(SCCO)c(C(=O)O)c2)cc1 has what recorded melting point?
114 to 117.5 °C

// query melting point value for entry CCCCCCCCCCCCCCCCCCOc1ccc(CCC(=O)N(Cc2ccccc2)c2ccc(SC)c(C(=O)O)c2)cc1
127 to 129 °C

Which melting point is listed for CCCCCCCCCCCCCCCCCCOc1ccc(CCC(=O)Nc2ccc(SC)c(C(=O)O)c2)cc1OC ?
174 to 176 °C

Find the recorded melting point belonging to CCCCCCCCCCCCCCCCCCOc1ccc(CCC(=O)Nc2ccc(Sc3ccc(C(=O)O)cc3)c(C(=O)O)c2)cc1 and report it.
198 to 203 °C

GET /values?readout=melting point&item= CCCCCCCCCCCCCCCCCCOc1ccc(CCC(=O)Nc2ccc(Oc3ccc(CCC(=O)O)cc3)c(C(=O)O)c2)cc1
156 to 160 °C

I have this molecule here, CCCCCCCCCCCCCCCCCCOc1ccc(CC(=O)N(C)c2ccc(SC)c(C(=O)OC)c2)cc1 , and I need its recorded melting point.
60 to 69 °C

May I ask what melting point has been recorded for CCCCCCCCCCCCCCCCCCOc1ccc(CC(=O)N(C)c2ccc(SCC)c(C(=O)O)c2)cc1 ?
87 to 88.5 °C

GET /values?readout=melting point&item= CCCCCCCCCCCCCCCCCCOc1ccc(CCC(=O)Nc2ccc(Oc3ccc4cc(C(=O)O)ccc4c3)c(C(=O)O)c2)cc1
215 to 225 °C

Please give the measured melting point for this molecule: CCCCCCCCCCCCCCCCCCOc1ccc(CCC(=O)Nc2ccc(Sc3cccc(C(=O)O)c3)c(C(=O)O)c2)cc1
194 to 198 °C

Sample CCCCCCCCCCCCCCCCCCOc1ccc(CC(=O)Nc2ccc(SC)c(C(=O)O)c2)cc1 — what was its melting point?
200 to 204 °C

For the molecule CCCCCCCCCCNC(=O)[C@H](CC(=O)O)NC(=O)CCCOc1ccc(CCC(=O)Nc2ccc(SC)c(C(=O)OC)c2)cc1 , what melting point is on record?
165 to 167 °C

I would be grateful if you could share the reported melting point for CCCCCCCCCCCCCCCCCCOc1ccc(C=CC(=O)N(C)c2ccc(SC)c(C(=O)O)c2)cc1 .
156 to 157 °C

Looking for the measured melting point of CCCCCCCCCCCCCCCCCCCCOc1ccc(CCC(=O)Nc2ccc(SC)c(C(=O)O)c2)cc1 , can you help?
211 to 213 °C

Reported melting point for CCCCCCCCCCCCCCCCOc1ccc(CC(=O)Nc2ccc(SC)c(C(=O)O)c2)cc1 : what is it?
200 to 205 °C

GET /values?readout=melting point&item= CCCCCCCCCCCCCCCCCC(=O)Nc1ccc(CC(=O)Nc2ccc(SC)c(C(=O)O)c2)cc1
214 to 217 °C
